Test system: SK-MEL-2 melanoma
PROCEDURE TEXT: NCI tumour cell line growth inhibition, 48 h
ENDPOINT LABEL: TGI

Solved entries (count: 4):
{"columns": ["COMPOUND", "TGI"],
 "data": [
  ["COc1ccc(-c2nc(SC)n(C3OC(COC(C)=O)C(OC(C)=O)C(OC(C)=O)C3OC(C)=O)c(=O)c2C#N)cc1 (configuration not stated)", "> 100 µM"],
  ["C[C@H](CO)C1=CC(C#C[Si](C)(C)C)N(C(=O)Oc2ccccc2)c2ccccc21 (some centres not stated)", "30.2 µM"],
  ["Cc1ccc2c(=O)c(C(=O)NNC(=S)NC3CCCCC3)c[nH]c2n1", "> 100 µM"],
  ["CC(C)c1cc(C(=O)[O-])c(O)c(C(C)C)c1.CC(C)c1cc(C(=O)[O-])c(O)c(C(C)C)c1.CC(C)c1cc(C(=O)[O-])c(O)c(C(C)C)c1.CC(C)c1cc(C(=O)[O-])c(O)c(C(C)C)c1.CC(C)c1cc(C(=O)[O-])c(O)c(C(C)C)c1.CC(C)c1cc(C(=O)[O-])c(O)c(C(C)C)c1.[Cu+2].[Mn+2].[Mn+2]", "42.6 µM"]
]}

Next compound, please.
Record OC[C@@H](O)[C@H](O)[C@@H](O)/C=N/Nc1ccc(Cl)nn1 / SK-MEL-2 melanoma, TGI recorded as > 100 µM

* * *

Test system: NCI-H226 lung
PROCEDURE TEXT: NCI tumour cell line growth inhibition, 48 h
ENDPOINT LABEL: TGI
# answer = value followed by unit

Some compounds with recorded TGI:
{"columns": ["COMPOUND", "SYSTEM", "RESULT"],
 "data": [
  ["OC1(C2(c3ccc(Cl)cc3)CCCC2)c2ccccc2C2=NCCN21 (stereo not given)", "NCI-H226 lung", "33 µM"],
  ["CCN(CC)CCC(=O)N1C/C(=C/c2ccccc2)C(=O)/C(=C\\c2ccccc2)C1", "NCI-H226 lung", "13.7 µM"],
  ["O=C(c1cccc2cc(O)ccc12)c1cn(CCN2CCOCC2)c2ccccc12", "NCI-H226 lung", "87.3 µM"],
  ["C=C(C1=CC(=O)C(C)(C)O1)[C@@H]1CC=C([C@@H]2CC[C@H]3[C@@]2(C)CC[C@H]2C(C)(C)C(=O)[C@H](OC(=O)CC(C)(O)CC(=O)O)C[C@]32C)[C@H](O)O1 (stereo not given in full)", "NCI-H226 lung", "31.3 µM"]
]}

API: the following record is the query input.
Short answer for CCCCCCCCCC[N+](C)(C)C : TGI was 8.97 µM

* * *

Tested on: MOLT-4 leukemia
PROCEDURE TEXT: NCI tumour cell line growth inhibition, 48 h
# TGI annotations

Observe how each entry below is paired with its result.
{"columns": ["COMPOUND", "ENDPOINT LABEL", "RESULT"],
 "data": [
  ["COc1ccc(/C=C2\\CCc3ccccc3C2=O)cc1OC", "TGI", "71.3 µM"],
  ["COc1ccc2[nH]c3c(C)c4ncccc4c(C)c3c2c1", "TGI", "> 10 µM"],
  ["Cc1ccccc1C[P+](c1ccccc1)(c1ccccc1)c1ccccc1", "TGI", "> 100 µM"],
  ["COC(=O)/C=C/c1cnc2c(c1)oc(=O)n2C", "TGI", "> 100 µM"]
]}

Query COC1C(O)CC(OC2CC(OC3CC(O[C@@H]4C(=O)c5c(cc6cc(OC7CC(OC8CC(O)C(O)C(C)O8)C(O)C(C)O7)c(C)c(O)c6c5O)CC4[C@H](OC)[C@@H](O)C(C)=O)OC(C)C3O)OC(C)C2O)OC1C (stereo not given in full) on MOLT-4 leukemia; TGI returned: 0.34 µM

// returns TGI for CN(C)c1c(C2CC(O)C(CO)O2)c(=O)c1=O (stereo not given) with MOLT-4 leukemia; value = > 100 µM

The compound OCCCCCNc1ccnc2cc(Cl)ccc12 , tested on MOLT-4 leukemia, showed TGI of > 100 µM

The measured TGI that Cc1ccc(NC(=S)N=Nc2c(O)[nH]c3ccccc23)cc1 showed for MOLT-4 leukemia is > 100 µM

TGI on MOLT-4 leukemia for CNC(=S)N(C1CCCCC1)C1CCCCC1 is > 100 µM

The compound CC1=CC(=O)/C(=C/N2C(=O)CNC2=S)C(=O)O1 , when measured on MOLT-4 leukemia, yielded TGI of > 100 µM

* * *

Overview of reported TGI across a group of compounds:
Tested on: LOX IMVI melanoma
PROCEDURE TEXT: NCI tumour cell line growth inhibition, 48 h
Express it in µM; write the number only.

Example results:
{"columns": ["COMPOUND", "UNITS", "TGI"],
 "data": [
  ["CCN(CC)CCOc1ccc(Cc2ccccc2)cc1", "µM", 33.3],
  ["C#CCN(Cc1nc2cc(C(F)(F)F)ccc2nc1-c1ccccc1)c1ccc(F)cc1", "µM", 97.8]
]}

# input for lookup
GET /value?item= C[C@H](CO)C1=CC(C#C[Si](C)(C)C)N(C(=O)Oc2ccccc2)c2ccccc21 (some centres not stated) &field=TGI returns 33.5

* * *

Tested on: T-47D breast
PROCEDURE TEXT: NCI tumour cell line growth inhibition, 48 h; in the data active = GI50 below about 0.43 µM; inactive = the rest
The reply should name one outcome from 1 = active, 0 = inactive

Example entries and their recorded answers appear below.
{"columns": ["COMPOUND", "CATEGORY"],
 "data": [
  ["COc1ccc(-c2cc(-c3ccc(Cl)cc3)nc(SCCCCCCC(=O)NO)n2)cc1", 0],
  ["CCCc1n(Cc2ccc3ccccc3n2)cc[n+]1Cc1ccc2ccccc2c1", 1],
  ["COc1cc2c(cc1OC)-c1ncc3cc(OC)c(OC)c(OC)c3c1C2", 0]
]}

stdin: Record request — test call for CCC1(N)C(=O)OCc2c1cc1n(c2=O)Cc2cc3ccccc3nc2-1 (stereo not drawn)
stdout: 0

stdin: Write down the call the test reported for this compound. Item: Cc1ccccc1C[P+](c1ccccc1)(c1ccccc1)c1ccccc1
stdout: 1

stdin: Would you mind telling me which call this test gave CCCCCCCCCC[N+](C)(C)C ?
stdout: 0

stdin: What is the recorded call for this compound in the test? Cc1cc(C)c(O)c(CNCCCNCc2cc(C)cc(C)c2O)c1
stdout: 0

stdin: Please let me know the test result on file for COc1ccc(C(=O)c2cc(C)c(OC)c(C)c2)c(OC)c1N(C(=O)CCl)C(=O)CCl .
stdout: 1

* * *

// values below are reported GI50
System: SNB-75 CNS
PROCEDURE TEXT: NCI tumour cell line growth inhibition, 48 h

Record excerpt, results attached:
{"columns": ["MOLECULE", "GI50"],
 "data": [
  ["CCCC(=O)Nc1c(I)cc(I)c(CC(CC)C(=O)O)c1I (configuration not stated)", "> 100 µM"],
  ["CCCCCCCCCC[N+](C)(C)C", "1.26 µM"],
  ["CCCc1n(Cc2ccc3ccccc3n2)cc[n+]1Cc1ccc2ccccc2c1", "0.41 µM"],
  ["CCCCCC(=C/c1ccccc1)/C=N/N=C(N)N", "1.35 µM"],
  ["C[C@@]1(O)CCC[C@H]1n1c(=O)c(C(F)F)cc2cnc(NC3CCN(S(C)(=O)=O)CC3)nc21", "0.223 µM"],
  ["COc1c2occc2cc2ccc(=O)oc12", "55.1 µM"],
  ["CCCCCCC(O)C(O)CCC(O)C1CCC(CCCCC(O)CC2=CC(C)OC2=O)O1 (configuration not stated)", "24.1 µM"],
  ["CN1CCN(c2ccc(-c3cccc(CN4CCOCC4)c3)cc2NC(=O)c2c[nH]c(=O)cc2C(F)(F)F)CC1", "13.6 µM"],
  ["COc1cc2c(cc1OC)-c1ncc3cc(OC)c(OC)c(OC)c3c1C2", "72 µM"],
  ["NC(Cc1c[nH]c2cc(F)ccc12)C(=O)O (configuration not stated)", "1940 µM"]
]}

Short answer for COC(=O)[C@H](Cc1cn(C)cn1)NC(=O)[C@@H](NC(=O)Nc1cc(C(F)(F)F)cc(C(F)(F)F)c1)C(C)(C)C : GI50 was > 10 µM

Note to self: GI50 recorded for C[C@@H]1OC(=O)NN=C1c1ccc(-c2ccc(F)cc2)c(C(F)(F)F)c1 was 5 µM

* * *

System: SF-539 CNS
PROCEDURE TEXT: NCI tumour cell line growth inhibition, 48 h
Tag: Fulfilled if measured TGI is not below 20 µM, Not fulfilled if it is.

{"columns": ["MOLECULE", "SYSTEM", "CATEGORY"],
 "data": [
  ["COc1c2occc2cc2ccc(=O)oc12", "SF-539 CNS", "Fulfilled"]
]}

stdin: Has Cc1nn(C(=O)c2ccncc2)c2c1C(c1ccc([N+](=O)[O-])cc1)SC(N)=N2 (centres undefined) a recorded TGI greater than or equal to 20 µM?
stdout: Fulfilled

stdin: Given the entry Fc1cc2nc3n(c2cc1F)C(c1c(Cl)cccc1Cl)SC3 (centres undefined) , answer whether its TGI meets or surpasses 20 µM.
stdout: Fulfilled

stdin: Answer whether TGI of NC(Cc1c[nH]c2cc(F)ccc12)C(=O)O (centres undefined) is greater than or equal to 20 µM.
stdout: Fulfilled
